biological target: T1, hRET.mmh (human, UniProt P07949 29-635, biotinylated in the ELISA of Example 4 (biot-hRET.mmh); not in the SPR of Example 3); experiment: SPR Biacore T200, mAb capture, 25 C
T1 construct: also called biot-hRET.mmh; soluble monomeric human RET
ATTRIBUTE_MEASURED: kon (M⁻¹ s⁻¹)
Write down the numeric answer in M⁻¹ s⁻¹ and omit the unit.

stdin: Any idea what its kon is? The binder is H4H8067P (antibody, human IgG4, V domains shown, human IgG4 Fc (H4H prefix)) VH: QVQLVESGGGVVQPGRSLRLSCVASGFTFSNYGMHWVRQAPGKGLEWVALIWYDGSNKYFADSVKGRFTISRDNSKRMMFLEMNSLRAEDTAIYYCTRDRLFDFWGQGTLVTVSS VL: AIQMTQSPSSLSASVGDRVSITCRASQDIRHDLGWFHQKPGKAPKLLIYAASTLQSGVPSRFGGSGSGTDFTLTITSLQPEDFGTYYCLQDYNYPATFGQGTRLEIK
stdout: 111000

stdin: Any idea what its kon is? The binder is H4H8080P (antibody, human IgG4, V domains shown, human IgG4 Fc (H4H prefix)) VH: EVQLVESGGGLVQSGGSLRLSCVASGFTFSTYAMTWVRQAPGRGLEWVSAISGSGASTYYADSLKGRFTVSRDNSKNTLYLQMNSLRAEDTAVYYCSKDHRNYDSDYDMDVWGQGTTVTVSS VL: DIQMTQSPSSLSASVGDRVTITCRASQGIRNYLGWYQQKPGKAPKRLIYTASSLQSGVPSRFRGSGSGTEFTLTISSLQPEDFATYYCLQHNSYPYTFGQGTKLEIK
stdout: 211000

stdin: Any idea what its kon is? The binder is H4H8071P (antibody, human IgG4, V domains shown, human IgG4 Fc (H4H prefix)) VH: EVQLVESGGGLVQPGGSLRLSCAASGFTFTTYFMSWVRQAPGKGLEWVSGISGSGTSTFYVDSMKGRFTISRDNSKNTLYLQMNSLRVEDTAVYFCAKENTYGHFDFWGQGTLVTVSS VL: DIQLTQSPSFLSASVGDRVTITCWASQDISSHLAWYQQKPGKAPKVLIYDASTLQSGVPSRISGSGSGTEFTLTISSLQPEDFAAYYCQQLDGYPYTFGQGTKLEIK
stdout: 156000
